- assay.summary: In vitro stability of 10 μM DB104 incubated in phosphate buffer saline (PBS)
- Type: physicochemical
- test.parameters: PBS incubation of DB104
measurement.kind: degradation product of DB104 observed in PBS

N[C@@H](Cc1ccc(O)c(O)c1)C(=O)O [Levodopa, reference compound]	observed
CCCCCCCCCCCCOC(=O)C(N)Cc1ccc(O)c(OC(=O)CCCCCCCCCCC)c1 (centres unmarked) [DB104M4]	observed
CCCCCCCCCCCCOC(=O)C(N)Cc1ccc(O)c(O)c1 (centres unmarked) [DB104M3]	observed

* * *

- assay.summary: In vitro stability of 10 μM DB104 incubated in phosphate buffer saline (PBS)
- Format: physicochemical
- test.parameters: phosphate buffer saline (PBS), PBS, summary estimate; read-out: in vitro half-life estimated, PBS (converted)
- Experimental: 10 μM DB104 (DB104 is identified above and is one of the Derivatives of the present invention) was incubated in fresh plasma and phosphate buffer saline (PBS) in multiple aliquots, and each aliquot was divided into two equal halves at the following time points: 0, 1, 2, 4, 6, 24, 48, 72, 96, 120, 144, 168, 192, 216, 240, and 264 h. […] The other half was quenched with perchloric acid and analyzed on an AB Sciex 7500 mass spectrometer to detect L-DOPA. […]
measurement.kind: half-life at 10 μM

Incoming: Requested read-out: half-life at 10 μM. Entry: `CCCCCCCCCCCCOC(=O)[C@@H](N)Cc1ccc(OC(=O)CCCCCCCCCCC)c(OC(=O)CCCCCCCCCCC)c1`
Outgoing: ~12 h
